assay: Example 4: dose response of FKBP constructs 160-255, Ec50, Ec90 and fold change (raw and normalized to mCherry); assay type: cell-based; settings: fold change during initial analysis
recorded-metric: FC (fold change)

{"molecule": "FKBP-238 (protein, Description of sequence: Construct Name: FKBP-238; Mutation(s): Q72R Q84E A117W V85R DRD G113N M54A) HCPIKSRKGDVLHAHYTGKLEDGTEFDSSLPRNQPFVFSLGTGERIKGWDQGLLGMCEGEKRKLVIPSELGYNERGWPPKIPGGATLVFEVELLKIER", "recorded-metric": "FC (fold change)", "value-reported": 26.8}
{"molecule": "FKBP-234 (protein, Description of sequence: Construct Name: FKBP-234; Mutation(s): Q72R Q84E A117W V85R DRD D90T) HCPIKSRKGDVLHMHYTGKLEDGTEFDSSLPRNQPFVFSLGTGERIKGWTQGLLGMCEGEKRKLVIPSELGYGERGWPPKIPGGATLVFEVELLKIER", "recorded-metric": "FC (fold change)", "value-reported": 23.5}
{"molecule": "FKBP-226: FKBP13 DRD-AcGFP construct of Table 10 (protein, Description of sequence: Construct Name: FKBP-226; Mutation(s): Q72R Q84E A117W V85R DRD P43R M54A) HCRIKSRKGDVLHAHYTGKLEDGTEFDSSLPRNQPFVFSLGTGERIKGWDQGLLGMCEGEKRKLVIPSELGYGERGWPPKIPGGATLVFEVELLKIER", "recorded-metric": "FC (fold change)", "value-reported": 31.5}
{"molecule": "FKBP-208 (protein, Description of sequence: Construct Name: FKBP-208; Mutation(s): Q72R Q84E A117W V85R DRD M54A E130R) HCPIKSRKGDVLHAHYTGKLEDGTEFDSSLPRNQPFVFSLGTGERIKGWDQGLLGMCEGEKRKLVIPSELGYGERGWPPKIPGGATLVFRVELLKIER", "recorded-metric": "FC (fold change)", "value-reported": 87.2}
{"molecule": "FKBP-233: FKBP13 DRD-AcGFP construct of Table 10 (protein, Description of sequence: Construct Name: FKBP-233; Mutation(s): Q72R Q84E A117W DRD D90T) HCPIKSRKGDVLHMHYTGKLEDGTEFDSSLPRNQPFVFSLGTGEVIKGWTQGLLGMCEGEKRKLVIPSELGYGERGWPPKIPGGATLVFEVELLKIER", "recorded-metric": "FC (fold change)", "value-reported": 47.2}
